- assayed_target: hKir2.3 (Homo sapiens)
- Sequence (P48050 whole entry): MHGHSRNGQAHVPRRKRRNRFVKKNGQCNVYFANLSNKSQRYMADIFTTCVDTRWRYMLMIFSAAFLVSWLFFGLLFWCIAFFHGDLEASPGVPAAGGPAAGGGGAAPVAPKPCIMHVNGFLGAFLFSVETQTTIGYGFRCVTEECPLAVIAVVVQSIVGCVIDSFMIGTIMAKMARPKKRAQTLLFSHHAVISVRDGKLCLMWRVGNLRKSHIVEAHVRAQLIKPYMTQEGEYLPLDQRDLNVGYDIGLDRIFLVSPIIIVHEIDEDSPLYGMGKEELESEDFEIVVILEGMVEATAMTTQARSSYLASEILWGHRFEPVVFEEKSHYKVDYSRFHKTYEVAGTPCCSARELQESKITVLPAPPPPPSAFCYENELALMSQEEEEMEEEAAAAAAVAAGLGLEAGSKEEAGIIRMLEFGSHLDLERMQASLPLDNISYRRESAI
- assay_notes: whole cell patch clamp, Kir2.3

entry_smiles: COc1ccc(CNCc2cccc3ccccc23)cc1
IC50: 4 µM

----------
- assayed_target: Kir2.1 (Mus musculus)
- assay_notes: whole cell
- details: IC50 Kir2.1, pH 8.5, manual patch clamp
pIC50: −log10 of the molar value.

compound: COc1ccc(CNCc2cccc3ccccc23)cc1 [ML133]
pIC50: 6.54

----------
- assayed_target: Kir2.1 (Mus musculus)
- Sequence (P35561 1-428): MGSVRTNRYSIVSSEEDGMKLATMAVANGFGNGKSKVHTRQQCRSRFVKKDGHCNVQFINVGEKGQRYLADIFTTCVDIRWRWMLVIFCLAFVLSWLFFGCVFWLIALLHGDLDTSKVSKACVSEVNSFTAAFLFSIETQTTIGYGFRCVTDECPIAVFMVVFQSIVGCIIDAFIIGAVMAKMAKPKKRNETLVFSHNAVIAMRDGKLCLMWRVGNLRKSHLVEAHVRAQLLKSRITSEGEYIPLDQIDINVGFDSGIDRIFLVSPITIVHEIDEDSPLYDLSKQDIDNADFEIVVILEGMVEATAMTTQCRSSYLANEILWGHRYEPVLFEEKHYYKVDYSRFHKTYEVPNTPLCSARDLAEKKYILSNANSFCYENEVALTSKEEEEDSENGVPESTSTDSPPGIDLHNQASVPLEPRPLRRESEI
- assay_notes: whole cell
- details: IC50 Kir2.1, pH 6.5, whole cell
measured_metric: IC50 (µM)

entry_smiles: COc1ccc(CNCc2cccc3ccccc23)cc1
assayed_target: Kir2.1 (Mus musculus)
unit_symbol: µM
measured: 10
